Measured pEC50 accompanies every entry in the list below.
subjectOfTest: GPR143 (pm-GPR143) (Homo sapiens, UniProt P51810, E330A/L223A/L224A/W329A)
Sequence (P51810 whole entry L223A/L224A/W329A/E330A): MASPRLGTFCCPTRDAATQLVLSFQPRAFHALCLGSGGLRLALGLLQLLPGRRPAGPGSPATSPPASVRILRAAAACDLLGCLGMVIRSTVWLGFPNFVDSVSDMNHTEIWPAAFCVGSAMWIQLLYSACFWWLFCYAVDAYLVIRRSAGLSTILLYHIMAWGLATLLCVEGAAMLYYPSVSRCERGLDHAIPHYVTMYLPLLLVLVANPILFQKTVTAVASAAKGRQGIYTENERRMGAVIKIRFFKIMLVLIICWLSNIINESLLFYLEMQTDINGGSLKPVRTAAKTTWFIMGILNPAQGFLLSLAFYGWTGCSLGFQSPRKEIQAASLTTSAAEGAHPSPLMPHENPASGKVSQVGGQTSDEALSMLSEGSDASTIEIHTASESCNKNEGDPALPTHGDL
protocolDetails: β-arrestin recruitment assay
Type: cell-based
The scale used: pEC50 is minus the common logarithm of the concentration in molar units.

O=C(Nc1ccc([N+](=O)[O-])cc1Cl)c1cc(Cl)ccc1O [niclosamide]
5.47

pEC50 for CCOc1ccc2nc3cc(N)ccc3c(N)c2c1 [ethacridine lactate] ? 4.58

* * *

subjectOfTest: GPR143 (wt-GPR143) (Homo sapiens)
Sequence (P51810 whole entry): as the sequence (P51810 whole entry L223A/L224A/W329A/E330A) above, with A223L, A224L, A329W, A330E counted along it
protocolDetails: β-arrestin recruitment assay
measuredMetric: pEC50
The scale used: pEC50 is minus the common logarithm of the concentration in molar units.

pEC50 for O=c1[nH]c2ccccc2n1C1CCN(CCCC(c2ccc(F)cc2)c2ccc(F)cc2)CC1 [pimozide] ? 5.34
